# Experimental Protocol: NCI Yeast Anticancer Drug Screen. Data for the rad50 strain (AID 155)
# Recorded Conditions: S. cerevisiae rad50 strain growth inhibition; at 33.0 µM
About 79,000 compounds went through this panel and 15% of them were active in at least one assay; those are over-represented in the sample as a whole. Active and inactive are the calls of the source. Cut-off read from the data, not from the text of the source: active = growth inhibition above about 70%; inactive = the rest.
I would appreciate it if you answered using one of these outcomes: yes = active, no = inactive

Consider the worked cases shown below.
O=S(=O)(Oc1c(Cl)cc(Cl)cc1Cl)c1ccccc1 :: no
CCCCCC(=O)C(C)(c1nc2n(c1O)/C(=N/C(=O)Nc1ccc(Cl)cc1)N=N2)c1nc2n(c1O)/C(=N/C(=O)Nc1ccc(Cl)cc1)N=N2 :: no
NCC(O)CSCc1ccc(Cl)cc1 (configuration not stated) :: no
CC(C)(C(=O)NN)c1ccccc1 :: no
O=CC(=C(I)I)c1ccccc1 :: yes
CCOC(=O)C1=C(C)NC(C)=C(C(=O)OCC)C1c1ccc(Cl)cc1 :: yes

Entry CCC1SC(=S)N(c2ccc(Cl)cc2)C1=O (configuration not stated) : call = ?
yes

Entry COC1=C(N=[N+]=[N-])C(=O)c2ncccc2C1=O : call = ?
yes

Entry Cc1cnccc1N=Nc1ccc(N(C)C)cc1 : call = ?
no

Entry CN(C)CCNC(=O)c1cccc2nc3c(ccc4ccccc43)nc12 : call = ?
yes

Entry O=C(Cc1ccccc1F)NC1=C(Cl)C(=O)c2ccccc2C1=O : call = ?
no

Entry N=c1oc2ccccc2cc1-c1nc2ccccc2[nH]1 : call = ?
no
